Target: T1, RNase R wild-type (Escherichia coli, UniProt P21499 1-813)
T1 sequence: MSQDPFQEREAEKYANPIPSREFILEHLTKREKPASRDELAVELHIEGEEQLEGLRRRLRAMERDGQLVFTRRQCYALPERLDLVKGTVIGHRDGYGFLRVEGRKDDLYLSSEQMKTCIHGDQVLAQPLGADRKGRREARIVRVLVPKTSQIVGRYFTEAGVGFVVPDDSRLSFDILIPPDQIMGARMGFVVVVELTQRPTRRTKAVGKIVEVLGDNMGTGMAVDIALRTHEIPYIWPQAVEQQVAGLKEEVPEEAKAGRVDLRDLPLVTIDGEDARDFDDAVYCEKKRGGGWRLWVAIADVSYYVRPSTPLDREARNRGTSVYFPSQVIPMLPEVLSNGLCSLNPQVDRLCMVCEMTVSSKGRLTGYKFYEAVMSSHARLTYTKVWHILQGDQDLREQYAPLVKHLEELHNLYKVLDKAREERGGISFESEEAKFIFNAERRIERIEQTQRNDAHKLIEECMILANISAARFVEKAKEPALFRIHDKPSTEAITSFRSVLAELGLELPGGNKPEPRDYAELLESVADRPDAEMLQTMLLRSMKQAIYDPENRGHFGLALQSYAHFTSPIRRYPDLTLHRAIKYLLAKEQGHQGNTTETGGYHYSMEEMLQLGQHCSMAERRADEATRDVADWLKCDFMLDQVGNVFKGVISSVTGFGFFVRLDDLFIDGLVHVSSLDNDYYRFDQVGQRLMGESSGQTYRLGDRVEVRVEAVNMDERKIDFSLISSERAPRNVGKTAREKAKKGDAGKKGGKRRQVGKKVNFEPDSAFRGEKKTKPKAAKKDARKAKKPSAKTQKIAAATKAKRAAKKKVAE
Assay: filter binding
assayEndpoint: pKd
Answers are plain numbers, as −log10 of the molar value.

I'd like to know its pKd. The binder in question is AAAAAAAAAAAAAAAAA (ssRNA) [A17]
9.10
